Just for reference, PubChem BioAssay AID1159580 is where these values come from.

- Test Protocol: chemical genetic growth profiling, strain panel (AID 1159580);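 further: tested at 20 µM; growth read once vehicle control cultures reached saturation at 30 °C; lower values mean less growth of the strain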
- Condition Parameters: S. cerevisiae deletion strains, growth OD, locus YKL101W, strain HSL1
Out of some 5,500 compounds screened, about 2,000 (36%) were called active. Roughly 18% stayed inconclusive and do not appear here. No stated cut-off is given here; in the data, active means normalized growth mostly below about 0.91 (no sharp cut-off); inconclusive means no clear call, values can overlap the other calls; inactive means mostly above about 0.92. The list shows a part of the results.
// classify into y = active, n = inactive

# outcome recorded in this test, key = N#Cc1c(Cl)c(Cl)c(Cl)c(Cl)c1C#N
y

Can you check O=C(CCN1CCCCC1)c1ccc(-c2ccccc2)cc1 next?
y

Can you check CC1=CC(=O)C(CCOCCC2=CC(=O)C(C)=CC2=O)=CC1=O next?
n

Can you check Cn1c([N+](=O)[O-])cnc1/C=C(\C#N)C(=O)Nc1ccc(F)cc1 next?
y

====

- Test Protocol: chemical genetic growth profiling, strain panel (AID 1159580);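 further: tested at 20 µM; growth read once vehicle control cultures reached saturation at 30 °C; lower values mean less growth of the strain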
- Condition Parameters: S. cerevisiae deletion strains, growth OD, locus YIL125W, strain kgd1
Screen size: about 5,500 compounds; about 2,000 (36%) were called active. About 18% were inconclusive and are not listed. Rule as the data show it: active = normalized growth mostly below about 0.91 (no sharp cut-off); inconclusive = no clear call, values can overlap the other calls; inactive = mostly above about 0.92. Some of the results follow.
// classify into active, inactive

# outcome recorded in this test, key = COc1ccc(CC2c3cc(OC)c(OC)cc3CCN2C)cc1OC (stereo not drawn)
inactive

Can you check O=C(O)COc1cc(Cl)c(Cl)cc1Cl next?
inactive

Can you check CCCCOc1ccc(OCCCN2CCOCC2)cc1 next?
inactive

Can you check Cc1cc(=O)c2c(O)cc(O)c(C)c2o1 next?
inactive

Can you check COc1c(O)cc2oc3cc(O)c(CC=C(C)C)c(O)c3c(=O)c2c1CC=C(C)C next?
active

Can you check COc1cc(OC)c2c(c1)O[C@H](c1ccc(OC)c(OC)c1)[C@@H](O)C2 next?
inactive

Can you check CCC1(C)CC(=O)NC1=O (stereo not drawn) next?
inactive

Can you check OC(CCN1CCCCC1)(c1ccccc1)c1ccccc1 next?
inactive

Can you check COC(=O)COc1ccc(Cl)cc1Cl next?
inactive

Can you check CC(=O)O[C@@](C)(CCC=C(C)C)C1CC=C(C)CC1 (stereo partly drawn) next?
inactive

Can you check CCC(C(=O)O)c1ccccc1 (stereo not drawn) next?
inactive

Can you check Cc1c(O)cc(O)c2c(=O)c(-c3ccc(O)cc3)coc12 next?
inactive

Can you check CCC1(c2ccc(N)cc2)CCC(=O)NC1=O (stereo not drawn) next?
inactive

====

- Test Protocol: chemical genetic growth profiling, strain panel (AID 1159580);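 further: tested at 20 µM; growth read once vehicle control cultures reached saturation at 30 °C; lower values mean less growth of the strain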
- Condition Parameters: S. cerevisiae deletion strains, growth OD, locus YMR129W
Hit rate of the full screen: of about 5,500 compounds, about 2,000 (36%) were called active. About 18% were inconclusive and are not listed. Cut-off read from the data, not from the text of the source: active = normalized growth mostly below about 0.91 (no sharp cut-off); inconclusive = no clear call, values can overlap the other calls; inactive = mostly above about 0.92. Some of the results follow.
// classify into active, inactive

# outcome recorded in this test, key = CC(=O)[C@H]1CCC2C3C[C@H](C)C4=CC(=O)CC[C@]4(C)C3[C@@H](O)C[C@@]21C (stereo not given in full)
inactive

Can you check CCCCCCCCCCCCC[N+](C)(C)Cc1ccccc1 next?
active

Can you check Cc1cc(C(C)(C)CC(C)(C)C)ccc1OCCOCC[N+](C)(C)Cc1ccccc1 next?
active

Can you check COc1ccc2c(c1)OC[C@@H](Cc1ccc(OC)c(OC)c1)[C@H]2O next?
inactive

Can you check CC(C)[C@H](N)C(=O)OCCOCn1cnc2c(=O)[nH]c(N)nc21 next?
inactive

Can you check COc1c2c(c(CC=C(C)C)c3oc(=O)c(-c4ccc(O)cc4)c(O)c13)OC(C)(C)C=C2 next?
active

Can you check CC(C)(C)CC(C)(C)c1ccc(OCCOCC[N+](C)(C)Cc2ccccc2)cc1 next?
active

Can you check COc1cc(OC)c2c(c1)O[C@H](c1ccc(OC)c(OC)c1)[C@@H](O)C2 next?
inactive

Can you check S=C=NCc1ccccc1 next?
active

Can you check Cc1c(N(C)C)c(=O)n(-c2ccccc2)n1C next?
inactive
